- Tested on: RAW-Dual
- EXPERIMENT_SUMMARY: NF-kB SEAP reporter activity, fold change vs agonist alone; cytotoxicity flag (confluency mask): not cytotoxic; higher = enhanced NF-kB activity
- PARTICULARS: agonist: Pam2CSK4 (TLR2/6) 0.1 ug/mL
In all, about 2,900 compounds were measured (“NF-kB SEAP reporter activity, fold change vs agonist alone”: median about 0.99, highest 2% from about 2.6 on). The full list was thinned out, with the highest values kept by preference.
Field: NF-kB SEAP reporter activity. Provide a value for each of the compounds that follow.
Could you keep your reply to the number by itself?

Suppose we examine the compound CCOC(=O)COc1ccc(/C=C2\SC(=S)NC2=O)cc1OC (library stock concentration (final ~1000-fold dilution): 10 mM) ; what NF-kB SEAP reporter activity value has been reported?
0.889

Same question for CCNC1=NC2C(OC(CO)C(O)C2O)S1 (stereo not drawn) (library stock concentration (final ~1000-fold dilution): 10 mM) please.
1.04

Can you handle Cl.Nc1ccn(C2OC(CO)C(O)C2O)c(=O)n1 (stereo not drawn) (library stock concentration (final ~1000-fold dilution): 10 mM) next?
1.16

###

- System: RAW-Dual
- EXPERIMENT_SUMMARY: NF-kB SEAP reporter activity, fold change vs agonist alone; cytotoxicity flag (confluency mask): not cytotoxic; higher = enhanced NF-kB activity
- PARTICULARS: agonist: LPS (TLR4) 0.1 ug/mL
In all, about 2,900 compounds were measured (“NF-kB SEAP reporter activity, fold change vs agonist alone”: median about 0.99, highest 2% from about 2.6 on). The sample holds the highest values, similar compounds and a random draw of the others, so the mix is not that of the screen.
Would you kindly list NF-kB SEAP reporter activity for each of these compounds?
Lab note: jot down the number only; don't add units.

Look up NF-kB SEAP reporter activity for this compound: C=CC(=O)Nc1cccc(Oc2nc(Nc3ccc(N4CCN(C)CC4)cc3OC)ncc2Cl)c1 (library stock concentration (final ~1000-fold dilution): 10 mM)
0.915

Entry COc1cc(OC)c(C=CS(=O)(=O)Cc2ccc(OC)c(NCC(=O)O)c2)c(OC)c1 (library stock concentration (final ~1000-fold dilution): 10 mM) please
4.24

Next compound up: COc1cc(N2CCC(N3CCN(C)CC3)CC2)ccc1Nc1ncc(Cl)c(Nc2ccccc2P(C)(C)=O)n1 (library stock concentration (final ~1000-fold dilution): 2 mM)
2.66

Also COc1cc2c3cc1Oc1c(OC)c(OC)cc4c1C(Cc1ccc(O)c(c1)Oc1ccc(cc1)CC3N(C)CC2)N(C)CC4.Cl.Cl (stereo unspecified) (library stock concentration (final ~1000-fold dilution): 10 mM) ?
1.44

Now consider O=C(Nc1ccc(Cl)cc1)c1cc2ccccc2cc1OP(=O)(O)O (library stock concentration (final ~1000-fold dilution): 10 mM) .
1.08

Now consider Cl.O=c1[nH]ccc2c(S(=O)(=O)N3CCCNCC3)cccc12 (library stock concentration (final ~1000-fold dilution): 10 mM) and answer again.
1.22

Thanks! And COc1cc(CCC(O)CC(O)CCc2ccc(O)c(OC)c2)ccc1O (stereo unspecified) (library stock concentration (final ~1000-fold dilution): 10 mM) ?
1.41

And the next one, O=C(O)[C@H](O)Cc1ccc(O)c(O)c1 (library stock concentration (final ~1000-fold dilution): 10 mM water) ?
1.19

And for COc1cc(N2CCC(N(C)C)CC2)ccc1Nc1ncc(Cl)c(Nc2ccccc2P(C)(C)=O)n1 (library stock concentration (final ~1000-fold dilution): 10 mM) ?
1.87

Then what about the compound CCOC(=O)C=P(c1ccccc1)(c1ccccc1)c1ccccc1 (library stock concentration (final ~1000-fold dilution): 10 mM) ?
0.964

Try this compound too: COc1cccc(CCc2ccccc2OCC(CN(C)C)OC(=O)CCC(=O)O)c1.Cl (stereo unspecified) (library stock concentration (final ~1000-fold dilution): 10 mM)
1.33

###

Provide the reported NF-kB SEAP reporter activity of each item.
- Tested on: RAW-Dual
- EXPERIMENT_SUMMARY: NF-kB SEAP reporter activity, fold change vs agonist alone; cytotoxicity flag (confluency mask): cytotoxic (confluency <70% of control); higher = enhanced NF-kB activity
- PARTICULARS: agonist: LPS (TLR4) 0.1 ug/mL
In all, about 2,900 compounds were measured (“NF-kB SEAP reporter activity, fold change vs agonist alone”: median about 0.99, highest 2% from about 2.6 on). The list comes from a sample in which the highest values are over-represented; it also holds close analogues and randomly drawn compounds.
Enter the number alone.

Given the entry COC(=O)CC(O)(CCCC(C)(C)O)C(=O)OC1C(OC)=CC23CCCN2CCc2cc4c(cc2C13)OCO4 (stereo not given) (library stock concentration (final ~1000-fold dilution): 10 mM) , what NF-kB SEAP reporter activity was observed with RAW-Dual?
0.397

Entry COc1cc2c(Oc3ccc4[nH]c(C)cc4c3F)ncnc2cc1OCCCN1CCCC1 (library stock concentration (final ~1000-fold dilution): 10 mM) please
0.671

Would you mind doing CS(=O)(=O)O.Cc1ccc(NC(=O)c2ccc(CN3CCN(C)CC3)cc2)cc1Nc1nccc(-c2cccnc2)n1 (library stock concentration (final ~1000-fold dilution): 10 mM) as well?
1.29

Then this molecule: COc1cc2c(Oc3ccc4[nH]c(C)cc4c3F)ncnc2cc1OCCCN1CCCC1.O=C(O)/C=C\C(=O)O (library stock concentration (final ~1000-fold dilution): 10 mM)
2.81

Could you do the same for Cc1ccc(NC(=O)Nc2cc(-c3ccccc3-c3nnn[nH]3)ccc2N(CC(C)C)CC(C)C)cc1 (library stock concentration (final ~1000-fold dilution): 10 mM) , please?
1.16

###

- Test system: RAW-Dual
- EXPERIMENT_SUMMARY: NF-kB SEAP reporter activity, fold change vs agonist alone; cytotoxicity flag (confluency mask): not cytotoxic; higher = enhanced NF-kB activity
- PARTICULARS: agonist: Pam2CSK4 (TLR2/6) 0.1 ug/mL
In all, about 2,900 compounds were measured (“NF-kB SEAP reporter activity, fold change vs agonist alone”: median about 0.99, highest 2% from about 2.6 on). Only a selection was taken, and the highest values are over-represented in it overall.
TEST_READOUT: NF-kB SEAP reporter activity
Answer field: number only, no words.

Consider the compound CN1CCN(CC(=O)N2c3ccccc3C(=O)Nc3cccnc32)CC1.Cl.Cl (library stock concentration (final ~1000-fold dilution): 10 mM water) and give its measured NF-kB SEAP reporter activity.
1.16

Now consider CC(C)CC(NC(=O)C(Cc1ccccc1)CC(O)C(Cc1ccccc1)NC(=O)OC(C)(C)C)C(=O)NC(Cc1ccccc1)C(N)=O (centres undefined) (library stock concentration (final ~1000-fold dilution): 10 mM) .
0.929

And then COC(=O)NC(C(=O)NC(Cc1ccccc1)C(O)CN(Cc1ccc(-c2ccccn2)cc1)NC(=O)C(NC(=O)OC)C(C)(C)C)C(C)(C)C (centres undefined) (library stock concentration (final ~1000-fold dilution): 10 mM) , what is it?
1.11

Same lookup for CCCCCCOC(=O)c1cc(O)c(=O)c2c(O)c(O)c(OC)cc2c1 (library stock concentration (final ~1000-fold dilution): 10 mM) , please.
0.599

Quick one: CC/C(C)=C/CC[C@](C)(O)C1CC[C@]2(C)C3C[C@@H](O[C@@H]4O[C@H](CO)[C@@H](O)[C@H](O)[C@H]4O[C@@H]4O[C@@H](C)[C@H](O)[C@@H](O)[C@H]4O)C4C(C)(C)C(O)CC[C@]4(C)C3C[C@H](O)C12 (some centres undefined) (library stock concentration (final ~1000-fold dilution): 10 mM)
0.952

Same question, CC1CC(=O)Nc2cccc(-c3ccc4c(c3)c(-c3cnn(C)c3)nn4C)c2N1 (centres undefined) (library stock concentration (final ~1000-fold dilution): 10 mM) this time
0.673

Moving on to the next compound: CS(=O)(=O)c1ccc(Oc2cc(F)cc(C#N)c2)c2c1C(O)C(F)(F)C2 (centres undefined) (library stock concentration (final ~1000-fold dilution): 10 mM)
1.01

Same read-out for CC(C)N(CCCNC(=O)Nc1ccc(C(C)(C)C)cc1)CC1OC(n2ccc3c(N)ncnc32)C(O)C1O (centres undefined) (library stock concentration (final ~1000-fold dilution): 10 mM) ?
0.991

Also need CC(=O)N1CCCC1C(=O)NC(Cc1c[nH]cn1)C(=O)NC(CO)C(=O)NC(CS)C(=O)NC(CC(N)=O)C(N)=O (centres undefined) (library stock concentration (final ~1000-fold dilution): 10 mM water) , thanks.
1.19

###

- Test system: RAW-Dual
- EXPERIMENT_SUMMARY: NF-kB SEAP reporter activity, fold change vs agonist alone; higher = enhanced NF-kB activity
- PARTICULARS: library stock concentration (final ~1000-fold dilution): 10 mM; cytotoxicity flag (confluency mask): not cytotoxic; agonist: MPLA (TLR4) […]
Over roughly 2,900 compounds, “NF-kB SEAP reporter activity, fold change vs agonist alone” has its median near 0.99; the highest 2% begin near 2.6. What follows is part of a selection rich in the highest values, with near analogues and random picks from the rest.
TEST_READOUT: NF-kB SEAP reporter activity

Suppose we examine the compound Fc1ccc2[nH]ccc2c1-c1nc(N2CCOCC2)c2sc(CN3CCN(CC4CC4)CC3)cc2n1 ; what NF-kB SEAP reporter activity value has been reported?
1.25

Could you do the same for Cc1noc(C)c1-c1cnc2c(-c3ccc(C(=O)O)cc3)cn(C(C)c3ccccn3)c2c1 (stereo unspecified) , please?
2.29

Now consider C=CC(=O)Nc1cccc(Nc2nc(Nc3ccc(NC4CN(CCF)C4)cc3OC)ncc2C(F)(F)F)c1 .
1.53

// query: Cl.O=c1[nH]ccc2c(S(=O)(=O)N3CCCNCC3)cccc12
0.986

Thanks! And COC(=O)c1ccc(O)c(O)c1 ?
1.17

And for COc1ccc(Cn2c3ncnc4c(ncn4Cc4ccc(OC)cc4)c-3nc2=O)cc1 ?
2.08

// same read-out, input: CCOC(=O)Nc1cc(-c2ccc(C)c(NS(C)(=O)=O)c2)nn2c(C)nnc12
2.52

Same for CCCn1c(NC(=O)c2cccc(C(N)=O)c2)nc2ccccc21
0.54

Moving on to the next compound: Cl.Cl.O=C(O)c1ccc(CN2CCC(CNC3CC3c3ccccc3)CC2)cc1 (stereo unspecified)
1.05

Also CCCC(=O)Nc1cccc(NC(=O)c2ccccc2Br)c1 ?
0.952

Ok, now Cc1noc(C)c1-c1ccc2[nH]c(=O)n3c2c1OCC3c1ccccn1 (stereo unspecified)
2.28

And the next one, O.O=c1c(O)c(-c2ccc(O)cc2O)oc2cc(O)cc(O)c12 ?
1.05

Can you handle O=C(CCNNC(=O)c1ccncc1)NCc1ccccc1 next?
1

Another compound to check: CC(C(O)c1ccc(O)cc1)N1CCC(Cc2ccccc2)CC1.CC(C(O)c1ccc(O)cc1)N1CCC(Cc2ccccc2)CC1.O=C(O)C(O)C(O)C(=O)O (stereo unspecified)
0.926

// same read-out, input: COc1ccc(CCc2nc3cc(-c4c(C)noc4C)ccc3n2CC(C)N2CCOCC2)cc1Cl (stereo unspecified)
2.65

Now this one: CCOC(=O)/C=C/c1ccc(O)c(OC)c1
1.2

Cool, now Cc1nc(-c2nc(-c3ccc(OC(F)(F)F)cc3)no2)nn1Cc1cccc(N2CCC(S(C)(=O)=O)CC2)c1
1.28

// query: O=C(NCc1cccc(O)c1)Nc1nc(-c2ccncc2)cs1
1.45

Next compound up: CS(=O)(=O)c1ccc(Oc2cc(F)cc(C#N)c2)c2c1C(O)C(F)(F)C2 (stereo unspecified)
1.16

Next compound up: Cl.Nc1ccc(N=Nc2ccccc2)c(N)n1
1.08

Another: CCc1ccc(NC(=O)Nc2ccccc2)cc1
1.01

Then what about the compound CCCN1CCCCC1C(=O)Nc1c(C)cccc1C (stereo unspecified) ?
1.09

Next compound up: O=C(Nc1ccccc1)c1cc([N+](=O)[O-])ccc1Cl
0.89

Now consider Cc1nn(CC(F)(F)F)cc1Nc1ncc(Br)c(NCc2ccc(S(N)(=O)=O)cc2)n1 .
1.33

Field entry: Cl.O=C1C2CCCCC2C(=O)N1CCCCN1CCN(c2nsc3ccccc23)CC1 (stereo unspecified)
0.868

Next record, please: CCCCCCCCCCCCCCCC(=O)OC1C(SC)OC(C(NC(=O)C2CC(CCC)CN2C)C(C)Cl)C(O)C1O.Cl (stereo unspecified)
0.983

Next up: CCCCCCCCCCCCCCCCCC(=O)O
1.05

Note, next up: O=C(CCCCCCCC(=O)NCCO)NCCO
1.03

And then COC(=O)C1=C(C)NC(C)=C(C(=O)OCCN2CCN(C(c3ccccc3)c3ccccc3)CC2)C1c1cccc([N+](=O)[O-])c1.Cl.Cl (stereo unspecified) , what is it?
0.873

Also need CC1CNCCCN1S(=O)(=O)c1cccc2cncc(F)c12.Cl.O.O (stereo unspecified) , thanks.
1.08

Moving on to O=C(CCCCCCC(=O)NO)NO
2.57

Please do the same for CC1CC(=O)c2c(ccc3c2C(=O)c2cccc(O)c2C3=O)C1 (stereo unspecified) as well.
1.26

Try Cc1nc2cc(F)c(F)cc2n1-c1cncc(Nc2ccc(C(F)(F)F)cc2)n1 next.
1.33

Now try CC(=N)NCc1cccc(CN)c1.Cl.Cl .
1.03

// same read-out, input: Cc1cc(N2CC(C)NC(C)C2)ncc1-c1ccc(-c2nc3c(ccn3C)c(=O)[nH]2)cc1 (stereo unspecified)
2.01

Could you do the same for Cc1nc(Nc2ncc(C(=O)Nc3c(C)cccc3Cl)s2)cc(N2CCN(CCO)CC2)n1.O , please?
0.715
